# method-description: Solubility in water
# Format: physicochemical
# condition-context: in water at 25° C.

compound | solubility (µg/mL)
CCN(CC)CCNC(=O)c1c(C)[nH]c(/C=C2\C(=O)Nc3ccc(F)cc32)c1C [Crystal Form I] | 5000
